B1: H2-Kb / Ed39 (parent complex)
chain 1: GEQVEQRPPHLSVREGDSAVIICTYTDPNSYYFFWYKQEPGAGLQLLMKVFSSTEINEGQGFTVLLNKKDKQLSLNLTAAHPGDSAVYFCATMSNYNVLYFGSGTKLTVEP
chain 2: GALVYQYPRRTICKSGTSMRMECQAVGFQATSVAWYRQSPQKTFELIALSTVNSAIKYEQNFTQEKFPISHPNLSFSSMTVLNAYLEDRGLYLCGARDGSYEQYFGPGTRLTVL
chain 3: not shown
chain 4: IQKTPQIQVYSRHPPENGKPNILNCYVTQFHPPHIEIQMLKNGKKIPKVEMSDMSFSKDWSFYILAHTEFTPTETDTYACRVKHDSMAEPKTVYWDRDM
chain 5: SIINFEKL

- Variants of: B1
- measurementProtocol: % of reporter cells activated (NFAT-GFP), raw; note: test concentration or dose not given here
Okay, here is how we bin by ratio to parent: group A = under 0.1, group B = from 0.1 up to 0.6, group C = 0.6 and over

{"sequenceVariant": "chain 5 E6I", "classLabel": "group A"}
{"sequenceVariant": "chain 5 F5W", "classLabel": "group C"}
{"sequenceVariant": "chain 5 L8I", "classLabel": "group C"}
{"sequenceVariant": "chain 5 K7C", "classLabel": "group B"}
{"sequenceVariant": "chain 5 F5I", "classLabel": "group C"}
{"sequenceVariant": "chain 5 I3C", "classLabel": "group B"}
{"sequenceVariant": "chain 5 F5C", "classLabel": "group C"}
{"sequenceVariant": "chain 5 N4E", "classLabel": "group B"}
{"sequenceVariant": "chain 5 K7V", "classLabel": "group B"}
{"sequenceVariant": "chain 5 I3R", "classLabel": "group A"}
{"sequenceVariant": "chain 5 S1N", "classLabel": "group A"}
{"sequenceVariant": "chain 5 F5E", "classLabel": "group B"}
{"sequenceVariant": "chain 5 F5T", "classLabel": "group C"}
{"sequenceVariant": "chain 5 E6V", "classLabel": "group A"}
{"sequenceVariant": "chain 5 N4S", "classLabel": "group A"}
{"sequenceVariant": "chain 5 L8P", "classLabel": "group B"}
{"sequenceVariant": "chain 5 F5L", "classLabel": "group C"}
{"sequenceVariant": "chain 5 L8T", "classLabel": "group C"}
{"sequenceVariant": "chain 5 E6D", "classLabel": "group B"}
{"sequenceVariant": "chain 5 I2V", "classLabel": "group C"}
{"sequenceVariant": "chain 5 L8W", "classLabel": "group B"}
{"sequenceVariant": "chain 5 I2E", "classLabel": "group C"}
{"sequenceVariant": "chain 5 I2N", "classLabel": "group B"}
{"sequenceVariant": "chain 5 L8E", "classLabel": "group B"}
{"sequenceVariant": "chain 5 I2F", "classLabel": "group C"}
{"sequenceVariant": "chain 5 K7N", "classLabel": "group A"}
{"sequenceVariant": "chain 5 I3K", "classLabel": "group B"}
{"sequenceVariant": "chain 5 N4W", "classLabel": "group B"}
{"sequenceVariant": "chain 5 I3Y", "classLabel": "group A"}
